Molecular target: Mitogen-activated protein kinase kinase kinase 5 (Homo sapiens) (UniProt Q99683)
Sequence (Q99683 whole entry): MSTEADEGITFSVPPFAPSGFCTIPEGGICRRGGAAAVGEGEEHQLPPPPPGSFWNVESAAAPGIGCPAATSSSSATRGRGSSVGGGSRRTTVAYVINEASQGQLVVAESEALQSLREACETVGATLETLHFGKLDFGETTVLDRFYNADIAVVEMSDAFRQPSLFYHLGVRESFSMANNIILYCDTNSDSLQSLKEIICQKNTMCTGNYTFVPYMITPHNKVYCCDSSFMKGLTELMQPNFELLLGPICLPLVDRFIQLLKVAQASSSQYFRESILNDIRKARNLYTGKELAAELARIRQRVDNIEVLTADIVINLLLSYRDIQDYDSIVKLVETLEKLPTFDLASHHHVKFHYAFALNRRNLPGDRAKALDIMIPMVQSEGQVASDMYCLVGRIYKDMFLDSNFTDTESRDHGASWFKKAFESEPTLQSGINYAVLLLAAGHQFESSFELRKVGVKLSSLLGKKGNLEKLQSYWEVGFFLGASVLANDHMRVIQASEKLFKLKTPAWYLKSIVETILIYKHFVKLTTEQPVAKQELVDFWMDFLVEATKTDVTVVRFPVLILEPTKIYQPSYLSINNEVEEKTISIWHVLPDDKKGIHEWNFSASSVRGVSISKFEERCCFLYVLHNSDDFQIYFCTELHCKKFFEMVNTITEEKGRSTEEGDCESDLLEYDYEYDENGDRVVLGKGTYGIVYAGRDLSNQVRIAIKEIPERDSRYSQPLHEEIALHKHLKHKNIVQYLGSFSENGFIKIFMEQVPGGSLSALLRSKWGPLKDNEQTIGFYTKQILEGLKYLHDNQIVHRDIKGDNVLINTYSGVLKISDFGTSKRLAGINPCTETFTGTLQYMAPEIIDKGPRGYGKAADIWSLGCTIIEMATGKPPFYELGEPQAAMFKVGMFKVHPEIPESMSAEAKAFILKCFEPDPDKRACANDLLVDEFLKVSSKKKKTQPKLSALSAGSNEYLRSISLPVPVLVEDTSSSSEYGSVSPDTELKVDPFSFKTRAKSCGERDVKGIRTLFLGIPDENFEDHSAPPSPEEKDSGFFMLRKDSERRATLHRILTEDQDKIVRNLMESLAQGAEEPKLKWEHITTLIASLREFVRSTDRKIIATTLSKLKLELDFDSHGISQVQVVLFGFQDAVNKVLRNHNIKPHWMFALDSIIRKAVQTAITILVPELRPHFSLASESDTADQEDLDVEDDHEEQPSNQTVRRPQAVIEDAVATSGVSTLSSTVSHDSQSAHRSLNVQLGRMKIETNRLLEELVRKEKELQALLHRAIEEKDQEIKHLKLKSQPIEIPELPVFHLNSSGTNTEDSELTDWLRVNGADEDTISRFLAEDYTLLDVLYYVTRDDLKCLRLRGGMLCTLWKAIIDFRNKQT
Conditions: at 1 µM
endpoint-name: residual activity (%)
# unit: % | format: bare number

Example cases with answers are listed next.
{"substance-smiles": "Cc1cc2ncc(-c3ccccc3)nc2cc1C", "residual activity / %": 78}
{"substance-smiles": "CO[C@H]1[C@@H](OC)C[C@H](C)[C@@H](OC)C2=CC(=O)C=C(NC(=O)/C(C)=C/C=C/[C@H](OC)[C@@H](OC(N)=O)/C(C)=C/[C@@H]1C)C2=O", "residual activity / %": 88}
{"substance-smiles": "COc1ccc(C(=O)Nc2sc3c(c2C(N)=O)CCCC3)cc1OC", "residual activity / %": 114}
{"substance-smiles": "Ic1cccc(CSc2nnc(-c3ccncc3)o2)c1", "residual activity / %": 80}
{"substance-smiles": "Cc1ccc(S(=O)(=O)/C=C/C#N)cc1", "residual activity / %": 111}

Field residual activity (entry Cn1nc2c3c(cccc31)C(=O)c1ccccc1-2 ) reads 71

Field residual activity (entry O=Nc1c(-c2c(O)[nH]c3ccccc23)[nH]c2ccccc12 ) reads 52

Field residual activity (entry COc1ccc(S(=O)(=O)N(CCO)c2ccccc2CN(C)C/C=C/c2ccc(Cl)cc2)cc1 ) reads 94

Field residual activity (entry c1ccc(-c2n[nH]cc2-c2ccnc3ccccc23)nc1 ) reads 98

Field residual activity (entry COc1cc2ncnc(N3CCN(C(=O)Nc4ccc(Oc5ccccc5)cc4)CC3)c2cc1OC ) reads 79

====

Biological target: Tyrosine-protein kinase SYK (Homo sapiens)
Conditions: at 10 µM
Below, each entry is listed with its recorded residual activity.
# unit: % | format: bare number

{"molecule": "Cc1ccc(S(=O)(=O)/C=C/C#N)cc1", "residual activity / %": 109}
{"molecule": "O=c1c2ccccc2[nH]c(=S)n1CCN1CCC(=C(c2ccc(F)cc2)c2ccc(F)cc2)CC1", "residual activity / %": 68}
{"molecule": "N#Cc1cnc2cnc(NCc3cccnc3)cc2c1Nc1ccc(F)c(Cl)c1", "residual activity / %": 2}
{"molecule": "CC#CC(=O)Nc1cc2c(Nc3ccc(F)c(Cl)c3)ncnc2cn1", "residual activity / %": 87}
{"molecule": "Cc1nc2cc3nc(-c4cccs4)cnc3cc2n1C", "residual activity / %": 93}
{"molecule": "N#CCCc1ccc2c(c1)-c1[nH]c3ccc([N+](=O)[O-])cc3c1CC(=O)N2", "residual activity / %": 41}
{"molecule": "CC(=O)c1ccc(N2CCOCC2)cc1O", "residual activity / %": 101}
{"molecule": "N#CC(C#N)=C(N)/C(C#N)=C/c1ccc(O)cc1", "residual activity / %": 74}
{"molecule": "Oc1n[nH]c2nnc(-c3c(-c4ccccc4)nn4ccccc34)cc12", "residual activity / %": 105}
{"molecule": "Oc1ccc(-c2nc(-c3ccc(F)cc3)c(-c3ccncc3)[nH]2)cc1", "residual activity / %": 100}

Field residual activity (entry N#C/C(=C(\N)Sc1ccc(N)cc1)c1ccccc1C(F)(F)F ) reads 78

Field residual activity (entry c1ccc2c(-c3ccncc3)c[nH]c2c1 ) reads 92

Field residual activity (entry O=C1Nc2cc(Br)ccc2/C1=C1/Nc2ccccc2/C1=N\O ) reads 37

Field residual activity (entry O=C1NC(=O)c2c1c1c3ccccc3[nH]c1c1[nH]c3cc(Br)ccc3c21 ) reads 79

Field residual activity (entry Cn1nc2c3c(cccc31)C(=O)c1ccccc1-2 ) reads 100

Field residual activity (entry CO[C@@H]1[C@H](N(C)C(=O)c2ccccc2)C[C@H]2O[C@]1(C)n1c3ccccc3c3c4c(c5c6ccccc6n2c5c31)C(=O)NC4 ) reads 3

Field residual activity (entry O=C(Nc1cccc(Nc2nccc(Nc3cccc(C(F)(F)F)c3)n2)c1)C1CC1 ) reads 75

Field residual activity (entry COc1ccc(CNc2nc(N(CCO)CCO)nc3c2ncn3C(C)C)cc1 ) reads 114

Field residual activity (entry Cc1cncc2cccc(S(=O)(=O)N3CCCN(C(=O)CN)C[C@H]3C)c12 ) reads 85

Field residual activity (entry Cc1nc(-c2ccccc2)c(-c2ccncc2)o1 ) reads 116

Field residual activity (entry COc1cccc(-c2cc(=O)c3ccccc3o2)c1N ) reads 113

====

Target: Activated CDC42 kinase 1 (Homo sapiens) (UniProt Q07912)
Sequence (Q07912 whole entry, looked up): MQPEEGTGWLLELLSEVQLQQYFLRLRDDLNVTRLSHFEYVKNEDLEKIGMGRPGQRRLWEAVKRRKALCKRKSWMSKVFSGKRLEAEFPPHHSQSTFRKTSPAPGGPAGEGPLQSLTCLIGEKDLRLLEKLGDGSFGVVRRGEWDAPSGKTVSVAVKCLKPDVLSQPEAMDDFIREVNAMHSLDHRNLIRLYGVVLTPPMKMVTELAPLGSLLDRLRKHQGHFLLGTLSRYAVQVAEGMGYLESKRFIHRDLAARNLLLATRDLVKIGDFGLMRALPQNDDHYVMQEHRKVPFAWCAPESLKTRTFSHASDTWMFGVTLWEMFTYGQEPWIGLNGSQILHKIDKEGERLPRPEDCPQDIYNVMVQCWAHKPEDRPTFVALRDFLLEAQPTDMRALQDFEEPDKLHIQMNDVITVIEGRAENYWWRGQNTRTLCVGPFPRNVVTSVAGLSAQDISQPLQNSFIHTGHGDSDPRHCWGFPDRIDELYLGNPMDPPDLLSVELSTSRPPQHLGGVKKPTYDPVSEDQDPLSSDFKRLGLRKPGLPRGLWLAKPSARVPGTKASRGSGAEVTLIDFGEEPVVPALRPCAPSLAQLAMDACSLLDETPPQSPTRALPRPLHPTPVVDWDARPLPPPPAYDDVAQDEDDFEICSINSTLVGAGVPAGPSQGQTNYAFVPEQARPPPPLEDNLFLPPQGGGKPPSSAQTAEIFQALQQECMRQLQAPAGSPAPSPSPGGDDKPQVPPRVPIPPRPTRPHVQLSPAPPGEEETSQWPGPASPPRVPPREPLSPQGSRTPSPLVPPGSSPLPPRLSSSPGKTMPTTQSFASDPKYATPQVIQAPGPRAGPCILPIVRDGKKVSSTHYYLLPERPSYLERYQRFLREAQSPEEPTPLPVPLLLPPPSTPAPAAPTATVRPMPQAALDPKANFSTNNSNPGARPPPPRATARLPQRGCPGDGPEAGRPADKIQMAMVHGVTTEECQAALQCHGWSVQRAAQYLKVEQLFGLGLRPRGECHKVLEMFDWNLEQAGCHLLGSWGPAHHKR
Conditions: at 1 µM
Values of residual activity greater than or equal to 30% map to satisfied; values below map to not satisfied.

Solved cases below.
{"substance-smiles": "CC(C)n1cnc2/c(=N/c3cccc(Cl)c3)nc(NCCO)[nH]c21", "subject-of-test": "Activated CDC42 kinase 1 (Homo sapiens) (UniProt Q07912)", "qualitative-label": "not satisfied"}
{"substance-smiles": "Oc1n[nH]c2nnc(-c3c(-c4ccccc4)nn4ccccc34)cc12", "subject-of-test": "Activated CDC42 kinase 1 (Homo sapiens) (UniProt Q07912)", "qualitative-label": "not satisfied"}
{"substance-smiles": "COc1ccc(CNc2nc(N(CCO)CCO)nc3c2ncn3C(C)C)cc1", "subject-of-test": "Activated CDC42 kinase 1 (Homo sapiens) (UniProt Q07912)", "qualitative-label": "satisfied"}
{"substance-smiles": "CCN(CC)CCCCN1c2ccccc2Oc2ccc(Cl)cc21", "subject-of-test": "Activated CDC42 kinase 1 (Homo sapiens) (UniProt Q07912)", "qualitative-label": "satisfied"}

Q) Check if residual activity >= 30% (inclusive). Item: O=c1c2ccccc2[nH]c(=S)n1CCN1CCC(=C(c2ccc(F)cc2)c2ccc(F)cc2)CC1
A) satisfied

====

Biological target: Vascular endothelial growth factor receptor 1 (Homo sapiens) (UniProt P17948)
Sequence (P17948 whole entry): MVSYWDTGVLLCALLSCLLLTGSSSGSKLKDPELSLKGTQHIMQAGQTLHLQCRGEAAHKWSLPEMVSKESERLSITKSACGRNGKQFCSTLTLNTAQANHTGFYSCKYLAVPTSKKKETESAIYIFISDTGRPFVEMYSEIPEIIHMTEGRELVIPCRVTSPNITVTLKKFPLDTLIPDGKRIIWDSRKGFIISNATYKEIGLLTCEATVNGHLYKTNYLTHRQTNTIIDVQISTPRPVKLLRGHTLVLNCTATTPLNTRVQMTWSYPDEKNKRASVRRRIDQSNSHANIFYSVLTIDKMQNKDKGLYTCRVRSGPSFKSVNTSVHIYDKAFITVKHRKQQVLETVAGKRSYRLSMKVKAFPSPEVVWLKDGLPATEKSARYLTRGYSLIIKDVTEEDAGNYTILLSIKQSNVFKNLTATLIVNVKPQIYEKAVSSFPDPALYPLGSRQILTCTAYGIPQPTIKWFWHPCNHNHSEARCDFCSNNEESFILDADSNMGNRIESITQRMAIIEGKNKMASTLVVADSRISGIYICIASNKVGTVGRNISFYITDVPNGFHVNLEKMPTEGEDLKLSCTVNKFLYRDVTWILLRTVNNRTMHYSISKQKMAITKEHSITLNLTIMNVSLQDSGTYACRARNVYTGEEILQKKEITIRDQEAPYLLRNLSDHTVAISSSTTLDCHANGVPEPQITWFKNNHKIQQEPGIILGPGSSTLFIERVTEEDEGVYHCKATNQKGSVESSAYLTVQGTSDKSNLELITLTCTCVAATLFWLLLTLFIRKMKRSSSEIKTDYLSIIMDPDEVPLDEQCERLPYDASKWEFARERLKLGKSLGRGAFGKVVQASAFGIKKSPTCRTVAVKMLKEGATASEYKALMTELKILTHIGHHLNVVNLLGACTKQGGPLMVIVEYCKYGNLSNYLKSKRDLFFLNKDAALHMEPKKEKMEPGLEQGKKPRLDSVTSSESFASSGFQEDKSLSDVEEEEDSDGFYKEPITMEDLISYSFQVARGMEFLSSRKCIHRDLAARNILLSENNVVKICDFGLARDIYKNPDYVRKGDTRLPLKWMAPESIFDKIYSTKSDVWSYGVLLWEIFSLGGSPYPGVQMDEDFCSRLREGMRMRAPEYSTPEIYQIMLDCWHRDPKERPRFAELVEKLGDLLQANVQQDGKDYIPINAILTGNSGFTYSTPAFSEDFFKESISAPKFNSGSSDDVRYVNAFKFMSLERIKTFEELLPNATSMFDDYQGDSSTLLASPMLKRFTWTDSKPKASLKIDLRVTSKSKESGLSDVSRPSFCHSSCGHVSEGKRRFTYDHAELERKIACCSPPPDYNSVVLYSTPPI
Details: at 1 µM
Each record's class is read off its residual activity using these ranges: lower segment = under 60%, middle segment = from 60% up to 90%, upper segment = 90% and over

{"substance-smiles": "Oc1n[nH]c2nnc(-c3c(-c4ccccc4)nn4ccccc34)cc12", "qualitative-label": "middle segment"}
{"substance-smiles": "Cc1cc(Nc2nc(-c3ccccc3)nc3ccccc23)n[nH]1", "qualitative-label": "lower segment"}
{"substance-smiles": "O=C1NC(=O)c2cc(Nc3ccc(F)cc3)c(Nc3ccc(F)cc3)cc21", "qualitative-label": "middle segment"}

Q) Any idea which band CC(=O)c1ccc(N2CCOCC2)cc1O is in?
A) upper segment

Q) Any idea which band Cc1ccc(S(=O)(=O)/C=C/C#N)cc1 is in?
A) upper segment

Q) Any idea which band O=C1Nc2ccc(Br)cc2/C1=C\c1cc2c([nH]1)CCCC2 is in?
A) lower segment

Q) Any idea which band CC(C)n1cnc2/c(=N/c3cccc(Cl)c3)nc(NCCO)[nH]c21 is in?
A) middle segment

Q) Any idea which band COc1cc2ncnc(N3CCN(C(=O)Nc4ccc(Oc5ccccc5)cc4)CC3)c2cc1OC is in?
A) lower segment

Q) Any idea which band Cn1cc(/C=C2\C(=O)Nc3ccc(S(N)(=O)=O)cc32)c2ccccc21 is in?
A) lower segment

====

Target: Serine/threonine-protein kinase pim-3 (Homo sapiens) (UniProt Q86V86)
Conditions: at 10 µM
Below, each entry is listed with its recorded residual activity.
# unit: % | format: bare number

Example cases with answers are listed next.
{"substance-smiles": "Cc1cc2ncc(-c3ccccc3)nc2cc1C", "subject-of-test": "Serine/threonine-protein kinase pim-3 (Homo sapiens) (UniProt Q86V86)", "residual activity / %": 96}
{"substance-smiles": "O=C1NC(=O)/C(=C/c2ccc3c(c2)OC(F)(F)O3)S1", "subject-of-test": "Serine/threonine-protein kinase pim-3 (Homo sapiens) (UniProt Q86V86)", "residual activity / %": 41}
{"substance-smiles": "COc1cc2ncnc(Nc3ccc(O)c(Br)c3)c2cc1OC", "subject-of-test": "Serine/threonine-protein kinase pim-3 (Homo sapiens) (UniProt Q86V86)", "residual activity / %": 70}
{"substance-smiles": "COc1cc2ncnc(N3CCN(C(=O)Nc4ccc(Oc5ccccc5)cc4)CC3)c2cc1OC", "subject-of-test": "Serine/threonine-protein kinase pim-3 (Homo sapiens) (UniProt Q86V86)", "residual activity / %": 93}
{"substance-smiles": "Nc1cccc(-c2cc3c(Oc4cccc(O)c4)ncnc3[nH]2)c1", "subject-of-test": "Serine/threonine-protein kinase pim-3 (Homo sapiens) (UniProt Q86V86)", "residual activity / %": 91}
{"substance-smiles": "Nc1n[nH]c2nnc(-c3c(-c4ccccc4)nn4ccccc34)cc12", "subject-of-test": "Serine/threonine-protein kinase pim-3 (Homo sapiens) (UniProt Q86V86)", "residual activity / %": 83}
{"substance-smiles": "Oc1ccc(-c2nc(-c3ccc(F)cc3)c(-c3ccncc3)[nH]2)cc1", "subject-of-test": "Serine/threonine-protein kinase pim-3 (Homo sapiens) (UniProt Q86V86)", "residual activity / %": 92}
{"substance-smiles": "Cc1nc(-c2ccccc2)c(-c2ccncc2)o1", "subject-of-test": "Serine/threonine-protein kinase pim-3 (Homo sapiens) (UniProt Q86V86)", "residual activity / %": 99}

Field residual activity (entry O=C1NC(=O)c2c1c1c3ccccc3[nH]c1c1[nH]c3cc(Br)ccc3c21 ) reads 14

Field residual activity (entry Nc1nc(Nc2ccc(S(N)(=O)=O)cc2)nn1C(=S)Nc1c(F)cccc1F ) reads 95

Ref: ChEMBL document CHEMBL2218924
